- Test system: HepG2
- experiment: Cytotoxicity against human HepG2 cells after 48 hrs by MTT assay
- Format: functional, cell-based
- testConditions: Homo sapiens, HepG2, 48 h; read-out: IC50
pIC50: −log10 of the molar value.
Each entry gets class 0 if its pIC50 stays under 5, and class 1 if its pIC50 is 5 or above.

{"columns": ["compound", "systemName", "assignedClass"],
 "data": [
  ["CC(=O)Oc1ccccc1C1CC(C)=NN1C(=O)CCl (stereo not given)", "HepG2", "class 1"],
  ["CC1=NN(C(=O)c2ccccc2Cl)C(c2ccccc2O)C1 (stereo not given)", "HepG2", "class 0"],
  ["CC1=NN(C(=O)c2ccc([N+](=O)[O-])cc2)C(c2ccccc2O)C1 (stereo not given)", "HepG2", "class 0"],
  ["CC1=NN(C(=O)CN2CC(C)CC(C)C2)C(c2ccccc2O)C1 (stereo not given)", "HepG2", "class 0"],
  ["CC(C)NCC(=O)N1N=C(c2cc3ccccc3oc2=O)CC1c1ccccc1 (stereo not given)", "HepG2", "class 1"]
]}

Prompt: Decide: pIC50 of CNCC(=O)N1N=C(c2cc3ccccc3oc2=O)CC1c1ccccc1 (stereo not given) >= 5?
Completion: class 0

Prompt: Test whether the compound Cc1ccc(C(=O)N2N=C(c3cc4ccccc4oc3=O)CC2c2ccccc2)cc1 (stereo not given) records pIC50 of 5 or higher.
Completion: class 0

Prompt: Check if pIC50 >= 5 (inclusive). Item: CC1=NN(C(=O)CCc2ccccc2)C(c2cc(Br)ccc2O)C1 (stereo not given)
Completion: class 0

* * *

Below, each of the compounds is paired with its reported IC50 value.
- experiment: Cytotoxicity against human PC3 cells after 48 hrs by MTT assay
- Assay type: functional, cell-based, PC-3
- testConditions: Homo sapiens, PC-3, 48 h; read-out: IC50
Field: numeric (µM). Do not append units.

Reference set, count: 4
{"columns": ["compound", "u", "IC50"],
 "data": [
  ["O=C(CNC1CCCCC1)N1N=C(c2cc3ccccc3oc2=O)CC1c1ccccc1 (stereo not given)", "µM", 48.5],
  ["CC1=NN(C(=O)CN2CCN(C(=O)OC(C)(C)C)CC2)C(c2ccccc2O)C1 (stereo not given)", "µM", 3.44],
  ["CC1=NN(C(=O)CCl)C(c2cc(Br)ccc2O)C1 (stereo not given)", "µM", 8.89],
  ["CC1=NN(S(=O)(=O)c2ccc(C)cc2)C(c2cc(Br)cc(Br)c2O)C1 (stereo not given)", "µM", 51.2]
]}

As a next step, examine the compound that follows.
Data point: CC1=NN(C(=O)c2ccc(C)cc2)C(c2ccccc2O)C1 (stereo not given) ; IC50 = 40.6

* * *

- Tested on: Bcap37
- experiment: Cytotoxicity against human Bcap37 cells after 48 hrs by MTT assay
- Type: functional, cell-based
- testConditions: Homo sapiens, Bcap37, 48 h; read-out: IC50
experimentalEndpoint: IC50 (µM)
Number only, in µM; omit the unit.

See these solved cases before continuing.
{"columns": ["compound", "IC50 [µM]"],
 "data": [
  ["CC1=NN(S(=O)(=O)c2ccc([N+](=O)[O-])cc2)C(c2cc(Cl)ccc2O)C1 (stereo not drawn)", 52.3],
  ["CCNCC(=O)N1N=C(c2cc3ccccc3oc2=O)CC1c1ccccc1 (stereo not drawn)", 6.49],
  ["CC1=NN(C(=O)CCc2ccccc2)C(c2cc(Br)ccc2O)C1 (stereo not drawn)", 41.3],
  ["CC(=O)Oc1ccccc1C1CC(C)=NN1C(=O)CN1CCCC1 (stereo not drawn)", 5.21],
  ["CCCN(CCC)CC(=O)N1N=C(C)CC1c1cc(Br)ccc1O (stereo not drawn)", 15.3]
]}

Reported IC50 of CC1=NN(C(=O)c2ccc(C)cc2)C(c2ccccc2O)C1 (stereo not drawn) : 9.97

Per the record, O=C(CN1CCSCC1)N1N=C(c2cc3ccccc3oc2=O)CC1c1ccccc1 (stereo not drawn) has IC50 of 8.2

// field: IC50; key: CC1=NN(C(=O)c2ccc([N+](=O)[O-])cc2)C(c2ccccc2O)C1 (stereo not drawn) ; value = 45.2
